Molecular target: T1, human TREM2 expressed on cells (human, UniProt Q9NZC2 19-230)
T1 construct: BW5147.G.1.4 cells stably expressing human TREM2 together with Dap12, or endogenous TREM2 of primary human myeloid cells; also called huT2 BW; hTREM2 expressing cell line
T1 sequence: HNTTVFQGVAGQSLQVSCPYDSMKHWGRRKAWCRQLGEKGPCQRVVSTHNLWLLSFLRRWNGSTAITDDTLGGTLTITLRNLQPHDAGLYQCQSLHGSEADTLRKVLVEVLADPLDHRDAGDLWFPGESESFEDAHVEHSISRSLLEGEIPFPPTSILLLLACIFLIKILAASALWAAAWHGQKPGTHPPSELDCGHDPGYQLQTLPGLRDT
Assay: FACS, hTREM2 BW cells
Recorded endpoint: Bmax (MFI)
Give the number; MFI is assumed, so skip it.

Name the recorded Bmax (MFI) for AL2p-47 huIgG1 (antibody, V domains shown) VH: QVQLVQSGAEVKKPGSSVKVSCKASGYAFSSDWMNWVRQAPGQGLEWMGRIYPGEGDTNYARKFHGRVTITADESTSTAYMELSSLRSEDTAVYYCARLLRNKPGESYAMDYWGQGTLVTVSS VL: DVVMTQTPLSLSVTPGQPASISCRTSQSLVHSNAYTYLHWYLQKPGQSPQLLIYKVSNRVSGVPDRFSGSGSGTDFTLKISRVEAEDVGVYYCSQSTRVPYTFGQGTKLEIKR .
226000

Consider the binder shown here: AL2p huIgG1 (human mouse chimeric parental antibody) (antibody, V domains shown, Mouse variable region with human IgG1 Fc region; Fab and IgG formats under one id; also called chimeric parental AL2p antibody as huIgG1) VH: QVQLQQSGPELVKPGASLKISCKASGYAFSSSWMNWVKQRPGKGLEWIGRIYPGDGDTNYNGEFRVRATLTADTSSTTAYMQLSSLTSEDSAVYFCARLLRNQPGESYAMDYWGQGASVTVSS VL: DVVMTQTPLSLPVSLGDQASISCRSSQSLVHSNGYTYLHWYLQKPGQSPKLLIYKVSNRFSGVPDRFSGSGSGTDFTLKISRVEADDLGVYFCSQSTRVPYTFGGGTKLEIK What is its recorded Bmax (MFI)?
199000

What value of Bmax (MFI) has been recorded for this entry: AL2p-61 huIgG1 (antibody, V domains shown) VH: QVQLVQSGAEVKKPGSSVKVSCKASGYAFSSQWMNWVRQAPGQGLEWMGRIYPGEGDTNYARKFQGRVTITADESTSTAYMELSSLRSEDTAVYYCARLLRNQPGESYAMDYWGQGTLVTVSS VL: GVVMTQTPLSLSVTPGQPASISCRSSQSLVHSNQYTYLHWYLQKPGQSPQLLIYKVSNRRSGVPDRFSGSGSGTDFTLKISRVEAEDVGVYYCSQSTRVPYTFGQGTKLEIKR
211000
